molecular target: UniProt Q14524; assay: Late INa screening assay (late sodium current, PatchXpress whole cell patch clamp); type: cell-based; details: compound at 10 μM; read-out: Late INa % blk
Sequence (Q14524 whole entry): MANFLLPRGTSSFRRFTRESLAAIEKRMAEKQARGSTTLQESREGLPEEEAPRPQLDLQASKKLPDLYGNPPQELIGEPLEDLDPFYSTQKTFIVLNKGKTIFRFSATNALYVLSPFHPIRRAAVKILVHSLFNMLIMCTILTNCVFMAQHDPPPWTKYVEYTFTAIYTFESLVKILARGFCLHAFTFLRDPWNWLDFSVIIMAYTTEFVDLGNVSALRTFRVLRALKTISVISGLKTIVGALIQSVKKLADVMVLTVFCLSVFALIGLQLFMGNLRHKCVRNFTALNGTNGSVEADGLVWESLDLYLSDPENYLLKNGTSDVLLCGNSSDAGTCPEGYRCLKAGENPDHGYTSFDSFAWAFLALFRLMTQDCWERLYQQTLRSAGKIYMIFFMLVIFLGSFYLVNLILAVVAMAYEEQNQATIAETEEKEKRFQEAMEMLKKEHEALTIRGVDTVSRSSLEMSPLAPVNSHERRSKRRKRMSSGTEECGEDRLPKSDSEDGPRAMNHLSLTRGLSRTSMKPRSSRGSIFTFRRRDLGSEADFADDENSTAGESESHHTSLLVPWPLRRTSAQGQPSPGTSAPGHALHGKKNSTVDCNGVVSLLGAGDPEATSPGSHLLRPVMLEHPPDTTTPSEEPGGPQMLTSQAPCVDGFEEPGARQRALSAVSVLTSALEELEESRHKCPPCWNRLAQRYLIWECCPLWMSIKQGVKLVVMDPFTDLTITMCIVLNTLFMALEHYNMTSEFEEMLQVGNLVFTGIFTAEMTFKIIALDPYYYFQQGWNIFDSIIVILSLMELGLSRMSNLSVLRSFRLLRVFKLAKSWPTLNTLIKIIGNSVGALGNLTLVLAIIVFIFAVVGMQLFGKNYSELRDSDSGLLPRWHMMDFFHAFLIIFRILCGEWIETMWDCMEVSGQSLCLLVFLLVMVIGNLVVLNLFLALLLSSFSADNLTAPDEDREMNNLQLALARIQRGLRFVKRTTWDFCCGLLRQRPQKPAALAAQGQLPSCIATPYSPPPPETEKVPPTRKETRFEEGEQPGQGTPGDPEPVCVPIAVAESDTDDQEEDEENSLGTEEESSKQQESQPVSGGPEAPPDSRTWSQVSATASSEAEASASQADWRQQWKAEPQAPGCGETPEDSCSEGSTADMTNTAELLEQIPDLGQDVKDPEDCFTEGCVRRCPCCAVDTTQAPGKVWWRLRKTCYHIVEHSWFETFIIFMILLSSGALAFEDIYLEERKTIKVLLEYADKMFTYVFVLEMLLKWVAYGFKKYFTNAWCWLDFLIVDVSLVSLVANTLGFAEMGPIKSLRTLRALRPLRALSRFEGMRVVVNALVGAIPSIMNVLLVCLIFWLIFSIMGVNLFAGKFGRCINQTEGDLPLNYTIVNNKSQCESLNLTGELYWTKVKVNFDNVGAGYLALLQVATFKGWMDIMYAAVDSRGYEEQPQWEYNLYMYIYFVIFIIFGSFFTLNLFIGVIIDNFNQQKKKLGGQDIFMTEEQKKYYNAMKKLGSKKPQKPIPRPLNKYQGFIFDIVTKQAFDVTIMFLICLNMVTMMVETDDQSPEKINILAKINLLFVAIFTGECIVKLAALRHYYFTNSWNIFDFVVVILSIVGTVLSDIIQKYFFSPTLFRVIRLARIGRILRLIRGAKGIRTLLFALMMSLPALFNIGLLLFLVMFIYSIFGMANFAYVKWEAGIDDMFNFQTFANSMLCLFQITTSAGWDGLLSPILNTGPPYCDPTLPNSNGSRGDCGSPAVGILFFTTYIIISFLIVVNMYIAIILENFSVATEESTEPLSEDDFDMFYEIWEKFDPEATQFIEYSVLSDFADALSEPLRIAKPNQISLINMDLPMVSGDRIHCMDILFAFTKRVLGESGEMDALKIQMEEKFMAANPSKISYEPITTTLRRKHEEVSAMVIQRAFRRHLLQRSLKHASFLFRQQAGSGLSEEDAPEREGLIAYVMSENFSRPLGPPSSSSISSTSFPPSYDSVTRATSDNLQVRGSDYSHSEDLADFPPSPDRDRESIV
Listed compounds paired with reported inhibition at 10 µM
measured_parameter: inhibition at 10 µM (%)

{"columns": ["compound", "target_of_assay", "measured_parameter", "result_value"],
 "data": [
  ["COc1ccc(C2C(C(=O)OCc3ccccc3)=C(C)Nc3nnnn32)c(C#N)c1 (stereo not shown)", "UniProt Q14524", "inhibition at 10 µM", 49.7],
  ["CC1=C(C(=O)OCc2ccccc2)C(c2ccc(S(C)(=O)=O)cc2[N+](=O)[O-])n2nnnc2N1 (stereo not shown)", "UniProt Q14524", "inhibition at 10 µM", 5.8],
  ["CCOC(=O)C1=C(C)NC2=C(C(=O)CCC2)C1c1cc2cc(OC)ccc2nc1Cl (stereo not shown)", "UniProt Q14524", "inhibition at 10 µM", -0.8],
  ["COc1ccc(C2C(C(=O)OCc3ccc(Cn4cccn4)cc3)=C(C)Nc3nnnn32)c2ccccc12 (stereo not shown)", "UniProt Q14524", "inhibition at 10 µM", 49.5]
]}

----------
target: UniProt Q14524; test: Late INa screening assay (late sodium current, PatchXpress whole cell patch clamp); format: cell-based; settings: compound at 10 μM; read-out: Late INa % blk
measured_parameter: inhibition at 10 µM (%)

{"columns": ["compound", "result_value"],
 "data": [
  ["CC1=C(C(=O)OCc2ccccc2)C(c2ccc(-n3ccnc3)cc2)n2nnnc2N1 (centres unmarked)", 18.3],
  ["COC(=O)C1=C(C)Nc2nnnn2C1c1c(Br)sc2ccccc12 (centres unmarked)", 71.2],
  ["CC1=C(C(=O)OCc2ccccc2)C(c2ccccc2-c2cccc(C(F)(F)F)c2)n2nnnc2N1 (centres unmarked)", 77.3],
  ["CC1=C(C(=O)OCc2ccccc2-c2ccccc2)C(c2cccc3ccccc23)n2nnnc2N1 (centres unmarked)", 25.4],
  ["CC1=C(C(=O)OCc2ccccc2)C(c2ccc3ccccc3c2)c2c(C)n[nH]c2N1 (centres unmarked)", 53.8]
]}

----------
biological target: hERG potassium channel (Homo sapiens, UniProt Q12809); assay: hERG screening assay (PatchXpress patch clamp, CHO cell line); conditions: 1 μM
Sequence (Q12809 whole entry): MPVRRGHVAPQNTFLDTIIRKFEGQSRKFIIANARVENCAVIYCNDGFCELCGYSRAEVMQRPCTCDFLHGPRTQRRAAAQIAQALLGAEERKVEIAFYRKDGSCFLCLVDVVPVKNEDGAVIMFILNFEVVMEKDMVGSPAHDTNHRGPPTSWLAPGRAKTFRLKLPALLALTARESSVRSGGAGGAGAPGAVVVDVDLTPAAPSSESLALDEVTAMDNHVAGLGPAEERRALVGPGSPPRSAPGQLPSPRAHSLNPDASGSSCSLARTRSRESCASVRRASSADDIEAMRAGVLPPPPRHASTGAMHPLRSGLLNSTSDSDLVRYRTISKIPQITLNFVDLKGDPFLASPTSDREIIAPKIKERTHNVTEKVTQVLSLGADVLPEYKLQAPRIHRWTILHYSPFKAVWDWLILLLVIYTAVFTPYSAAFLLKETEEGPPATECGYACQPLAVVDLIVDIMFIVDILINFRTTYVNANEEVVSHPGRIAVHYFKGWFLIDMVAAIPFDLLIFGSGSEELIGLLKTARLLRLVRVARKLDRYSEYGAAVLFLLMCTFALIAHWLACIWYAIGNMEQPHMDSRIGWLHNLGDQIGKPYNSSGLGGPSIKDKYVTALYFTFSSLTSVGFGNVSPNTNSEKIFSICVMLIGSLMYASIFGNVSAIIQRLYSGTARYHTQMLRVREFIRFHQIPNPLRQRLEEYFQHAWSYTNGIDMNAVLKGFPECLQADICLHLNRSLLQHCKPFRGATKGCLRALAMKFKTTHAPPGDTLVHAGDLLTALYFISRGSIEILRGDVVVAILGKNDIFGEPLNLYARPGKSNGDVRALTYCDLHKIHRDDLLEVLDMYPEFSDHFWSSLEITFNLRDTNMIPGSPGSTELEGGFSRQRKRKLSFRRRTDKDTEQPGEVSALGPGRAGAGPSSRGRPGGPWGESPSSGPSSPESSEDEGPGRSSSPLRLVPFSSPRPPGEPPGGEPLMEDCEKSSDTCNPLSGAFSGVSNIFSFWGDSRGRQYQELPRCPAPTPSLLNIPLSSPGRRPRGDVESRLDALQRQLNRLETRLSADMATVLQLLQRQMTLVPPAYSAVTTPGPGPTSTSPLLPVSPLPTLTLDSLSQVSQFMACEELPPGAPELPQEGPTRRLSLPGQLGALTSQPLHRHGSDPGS
measured_parameter: hERG Patch Clamp hERG % blk (%)

{"columns": ["molecule", "target_of_assay", "result_value"],
 "data": [
  ["CCOC(=O)C1=C(C)Nc2nnnn2C1c1csc2ccccc12 (stereo not drawn) [PT-017]", "hERG potassium channel (Homo sapiens, UniProt Q12809)", 10.0],
  ["CC1=C(C(=O)OCc2ccccc2)C(c2occc2-c2ccc(F)cc2)n2nnnc2N1 (stereo not drawn) [PT-396]", "hERG potassium channel (Homo sapiens, UniProt Q12809)", 10.0],
  ["CC1=C(C(=O)OCc2ccccc2)C(c2ccc3ccccc3c2)c2c(C)n[nH]c2N1 (stereo not drawn) [PT-325]", "hERG potassium channel (Homo sapiens, UniProt Q12809)", 10.0],
  ["CC1=C(C(=O)N2CCC(c3ccccc3)CC2)C(c2ccsc2)C2=C(CCCC2=O)N1 (stereo not drawn) [PT-163]", "hERG potassium channel (Homo sapiens, UniProt Q12809)", 15.0],
  ["COC(=O)c1ccc(-c2n[nH]c3c2C(c2cccc4ccccc24)C2=C(COC2=O)N3)cc1 (stereo not drawn) [PT-085]", "hERG potassium channel (Homo sapiens, UniProt Q12809)", 34.0],
  ["CCOC(=O)C1=C(C)Nc2nnnn2C1c1cccc(Oc2ccccc2)c1 (stereo not drawn) [PT-464]", "hERG potassium channel (Homo sapiens, UniProt Q12809)", 11.0],
  ["CC1=C(C(=O)OCc2ccccc2)C(c2ccc(N(C)C)cc2[N+](=O)[O-])n2nnnc2N1 (stereo not drawn) [PT-409]", "hERG potassium channel (Homo sapiens, UniProt Q12809)", 27.0],
  ["CCOC(=O)C1=C(C)Nc2[nH]ncc2C1c1ccc(OC)cc1OCc1ccccc1 (stereo not drawn) [PT-445]", "hERG potassium channel (Homo sapiens, UniProt Q12809)", 10.5],
  ["CC1=C(C(=O)NCc2ccccc2)C(c2ccc3ccccc3c2)n2nnnc2N1 (stereo not drawn) [PT-068]", "hERG potassium channel (Homo sapiens, UniProt Q12809)", 14.0],
  ["COc1ccc(COC(=O)C2=C(C)Nc3nnnn3C2c2cccc3ccccc23)cc1OC (stereo not drawn) [PT-061]", "hERG potassium channel (Homo sapiens, UniProt Q12809)", 24.0],
  ["N#CC1=C(N)OC2=C(C(=O)CCC2)C1c1ccc(Br)cc1 (stereo not drawn) [PT-096]", "hERG potassium channel (Homo sapiens, UniProt Q12809)", 15.0],
  ["CC1=C(C(=O)OCc2ccccc2)C(c2cccs2)n2nnnc2N1 (stereo not drawn) [PT-040]", "hERG potassium channel (Homo sapiens, UniProt Q12809)", 14.5],
  ["N#CC1=C(N)OC2=C(C(=O)CC(c3ccccc3)C2)C1c1cccs1 (stereo not drawn) [PT-101]", "hERG potassium channel (Homo sapiens, UniProt Q12809)", 19.0],
  ["CC1=C(C(=O)OCc2ccccc2)C(c2ccccc2-c2ccc(C(=O)O)cc2)n2nnnc2N1 (stereo not drawn) [PT-254]", "hERG potassium channel (Homo sapiens, UniProt Q12809)", 15.0],
  ["CC1=C(C(=O)OCc2ccccc2)C(c2cccc3c2OCO3)n2nnnc2N1 (stereo not drawn) [PT-034]", "hERG potassium channel (Homo sapiens, UniProt Q12809)", 14.5],
  ["CC1=C(C(=O)OC(c2ccccc2)C2CC2)C(c2cccc3ccccc23)n2nnnc2N1 (stereo not drawn) [PT-002]", "hERG potassium channel (Homo sapiens, UniProt Q12809)", 11.5],
  ["COC(=O)C1=C(C)Nc2nnnn2C1c1cccc2ccccc12 (stereo not drawn) [PT-512]", "hERG potassium channel (Homo sapiens, UniProt Q12809)", 10.5],
  ["CC1=C(C(=O)O[C@@H](C)c2ccccc2)C(c2cc3ccccc3o2)n2nnnc2N1 (stereo partly drawn) [PT-059]", "hERG potassium channel (Homo sapiens, UniProt Q12809)", 10.0],
  ["CCS(=O)(=O)N1CCN(c2cccc(OC)c2C2C(C(=O)OCc3ccccc3)=C(C)Nc3nnnn32)CC1 (stereo not drawn) [PT-378]", "hERG potassium channel (Homo sapiens, UniProt Q12809)", 10.0],
  ["CC1=C(C(=O)OCc2ccccc2)C(c2nccs2)c2cn[nH]c2N1 (stereo not drawn) [PT-369]", "hERG potassium channel (Homo sapiens, UniProt Q12809)", 10.0],
  ["CC1=C(C(=O)OCc2ccccc2)C(c2ccccc2-c2ccccc2)n2nnnc2N1 (stereo not drawn) [PT-025]", "hERG potassium channel (Homo sapiens, UniProt Q12809)", 11.0],
  ["CC1=C(C(=O)OCc2ccccc2)C(c2cc3ccccc3o2)n2nnnc2N1 (stereo not drawn) [PT-045]", "hERG potassium channel (Homo sapiens, UniProt Q12809)", 10.0],
  ["CCOC(=O)C1=C(C)Nc2nnnn2C1c1ccccc1-n1ccnc1C.Cl (stereo not drawn) [PT-457]", "hERG potassium channel (Homo sapiens, UniProt Q12809)", 10.0],
  ["CC1=C(C(=O)OCc2ccccc2)C(c2nccs2)n2nnnc2N1 (stereo not drawn) [PT-364]", "hERG potassium channel (Homo sapiens, UniProt Q12809)", 10.0],
  ["C=CCOC(=O)C1=C(C)Nc2nnnn2C1c1cccc2ccccc12 (stereo not drawn) [PT-319]", "hERG potassium channel (Homo sapiens, UniProt Q12809)", 10.0],
  ["CC1=C(C(=O)OCc2ccccc2)C(c2ccccc2-c2ccc(NS(C)(=O)=O)cc2)c2cn[nH]c2N1 (stereo not drawn) [PT-366]", "hERG potassium channel (Homo sapiens, UniProt Q12809)", 28.0],
  ["CC1=C(C(=O)O[C@@H](C)c2ccccc2)[C@@H](c2cccc3ccccc23)n2nnnc2N1 [PT-050]", "hERG potassium channel (Homo sapiens, UniProt Q12809)", 10.0],
  ["CC1=C(C(=O)OCc2ccc(Cn3cccn3)cc2)C(c2cccc3ccccc23)n2nnnc2N1 (stereo not drawn) [PT-279]", "hERG potassium channel (Homo sapiens, UniProt Q12809)", 12.5],
  ["CC1=C(C(=O)OCc2ccccc2)C(c2ccccc2N2CCN(C)CC2)n2nnnc2N1 (stereo not drawn) [PT-340]", "hERG potassium channel (Homo sapiens, UniProt Q12809)", 57.0],
  ["CCOC(=O)C1=C(CC)Nc2nnnn2C1c1cccc2ccccc12 (stereo not drawn) [PT-010]", "hERG potassium channel (Homo sapiens, UniProt Q12809)", 12.5],
  ["CCOC(=O)C1=C(C)NC(C)=C(C(=O)OCC)C1c1ccc2c(c1)OCCO2 [PT-109]", "hERG potassium channel (Homo sapiens, UniProt Q12809)", 16.0],
  ["CCOC(=O)C1=C(C)Nc2c(c(C)nn2C)C1c1cccc2ccccc12 (stereo not drawn) [PT-440]", "hERG potassium channel (Homo sapiens, UniProt Q12809)", 12.0],
  ["CCOC(=O)C1=C(C)Nc2nnnn2C1c1ccccc1-c1cccc(-c2nnn[nH]2)c1 (stereo not drawn) [PT-493]", "hERG potassium channel (Homo sapiens, UniProt Q12809)", 10.0],
  ["CC1=C(C(=O)OCc2ccccc2)C(c2c(-c3ccc(C(=O)O)cc3)sc3ccccc23)n2nnnc2N1 (stereo not drawn) [PT-294]", "hERG potassium channel (Homo sapiens, UniProt Q12809)", 12.5],
  ["CCOC(=O)C1=C(C)NC(C)=C(C(=O)OCC)C1c1sc2ccccc2c1C [PT-116]", "hERG potassium channel (Homo sapiens, UniProt Q12809)", 22.9],
  ["CCCC1=C(C(=O)OCC)C(c2ccsc2)C2=C(CC(c3ccco3)CC2=O)N1 (stereo not drawn) [PT-150]", "hERG potassium channel (Homo sapiens, UniProt Q12809)", 28.2]
]}
